- measurement-notes: XTT cell proliferation (cytotoxicity) assay on McCoy cells
- Assay type: cell-based
- run-parameters: mouse
measurement-type: IC50 at 48 h (µg/mL)
Provide only the numeric value, understood in µg/mL.

Returns the measured IC50 at 48 h for the input compound. Input: "COc1ccc(-c2cc(=O)c3c(O)cc(O)cc3o2)cc1"
35.4

* * *

- measurement-notes: XTT cell proliferation (cytotoxicity) assay on McCoy cells
- Assay type: cell-based
- run-parameters: mouse; McCoy cells, XTT, 48 h; read-out: IC50 (cytotoxicity)
*1 amine or outer side, *2 acyl side, *3 side chain or, on linkers, in order; H or OH if unused. Where a SMILES comes first, the peptide text is derived from it. Bridges are numbered along the chain shown (N, C = ends). Roman numbers before positions name the chains, in order. [ ]: non-standard residue; d: D form. Actinocin(9to1) = Cc1c2oc3c(C)ccc(C(=O)[*:1])c3nc-2c(C(=O)[*:2])c(N)c1=O; NMeV = CN[C@H](C(=O)O)C(C)C; Sar = CNCC(=O)O
measurement-type: IC50 at 48 h (µg/mL)
Provide only the numeric value, understood in µg/mL.

C=C(C)[C@@H]1CC[C@]2(C(=O)O)CC[C@]3(C)[C@H](CC[C@@H]4[C@@]5(C)CC[C@H](O)C(C)(C)[C@@H]5CC[C@]43C)[C@@H]12 [compound 6, betulinic acid]; 31

Returns the measured IC50 at 48 h for the input molecule. Input: Cc1c2oc3c(C)ccc(C(=O)N[C@@H]4C(=O)N[C@H](C(C)C)C(=O)N5CCC[C@H]5C(=O)N(C)CC(=O)N(C)[C@@H](C(C)C)C(=O)O[C@@H]4C)c3nc-2c(C(=O)N[C@@H]2C(=O)N[C@H](C(C)C)C(=O)N3CCC[C@H]3C(=O)N(C)CC(=O)N(C)[C@@H](C(C)C)C(=O)O[C@@H]2C)c(N)c1=O [Actinomycin-D, reference compound] (I: T[dV]P[Sar][NMeV] / II: T[dV]P[Sar][NMeV]; ester I:1-I:C, II:1-II:C; linker I:N-II:N via Actinocin(9to1))
0.00336
